# tested on: Neuropeptide Y receptor type 1 (Homo sapiens) (UniProt P25929)
# Sequence (P25929 whole entry, looked up): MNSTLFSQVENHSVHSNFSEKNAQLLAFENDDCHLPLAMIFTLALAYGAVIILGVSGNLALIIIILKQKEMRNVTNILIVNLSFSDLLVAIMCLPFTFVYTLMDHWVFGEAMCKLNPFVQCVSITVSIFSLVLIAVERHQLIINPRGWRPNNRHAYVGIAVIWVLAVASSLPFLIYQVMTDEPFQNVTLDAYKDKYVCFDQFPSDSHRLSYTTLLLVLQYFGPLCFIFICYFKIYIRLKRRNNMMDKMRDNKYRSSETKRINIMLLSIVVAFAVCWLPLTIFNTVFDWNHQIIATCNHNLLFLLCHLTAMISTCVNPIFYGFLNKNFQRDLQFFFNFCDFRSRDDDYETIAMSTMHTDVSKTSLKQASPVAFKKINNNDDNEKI
# assay text: NPY-Y1 receptor potentiators or agonists, primary screen, cell-based (AID 1304);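 further: cells stimulated with NPY at EC10 then isoproterenol at EC100; 0% = low agonist plus stimulus and 100% = saturating agonist plus stimulus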
# assay context: NPY-Y1 expressing cells, potentiator/agonist activation; at 3.6 µM; active compounds read high
The campaign covered roughly 220,000 compounds. About 800 (0.36%) were called active. Only a selection was taken, and actives are over-represented in it overall.
Measured activation accompanies every entry in the list below.

Query (compound): CCC(C)Cn1c(O)cc2nn(-c3nc4ccccc4s3)c(=O)c-2c1C (stereo unspecified) ; field requested: activation
13.9% (inactive)

Sample COc1ccc(C2c3[nH]c4ccccc4c3CCN2CCCn2cccn2)cc1C (stereo unspecified) — what was its activation?
-23.6% (inactive)

Endpoint output: activation of CCOC(=O)C1CCN(C(=O)Nc2ccc(C)c(Cl)c2)CC1 . Value?
2.62% (inactive)

* * *

# tested on: Neuropeptide Y receptor type 1 (Homo sapiens)
# assay text: NPY-Y1 receptor potentiators or agonists, primary screen, cell-based (AID 1304);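 further: cells stimulated with NPY at EC10 then isoproterenol at EC100; 0% = low agonist plus stimulus and 100% = saturating agonist plus stimulus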
# assay context: NPY-Y1 expressing cells, potentiator/agonist activation; at 3.6 µM; active compounds read high
In all, about 220,000 compounds went through this assay and about 800 (0.36%) were called active. The sample holds actives, similar compounds and a random draw of the others, so the mix is not that of the screen.
Each record here notes measured activation.
Give a bare numeral; the unit % is implied.

Query: activation; subject: CCn1c2ccccc2c2cc(NC(=O)Nc3ccc([N+](=O)[O-])cc3C)ccc21
45.6

Item under review: COc1ccc(C(=O)C2CCCN(Cc3ccc4nonc4c3)C2)c(C)c1 (stereo unspecified) . Reported activation?
-11.8

# input compound: C/C(Cc1ccccc1)=N\NC(=O)CNC(=O)c1ccccc1Cl ; wanted: its activation
-3

Suppose we examine the compound CC(=O)c1ccc(NC(=O)Nc2ccc([N+](=O)[O-])cc2C)cc1 ; what activation value has been reported?
-8.87

What measured activation goes with CCOC(=O)c1[nH]ncc1CN1CCCC(C(=O)c2ccc(OC)cc2C)C1 (stereo unspecified) ?
-0.54

Quick one: activation of CC(C)(C)CC(C)(C)NCC(O)COCCOc1ccc(Br)cc1 (stereo unspecified) ?
-16.3

Quick check: activation of CCn1c2ccccc2c2cc(NC(=O)CNC)ccc21 ?
-3.25

Would you mind telling me what activation value was observed for OC(COCc1ccco1)CN1CCN(c2ccccc2)CC1 (stereo unspecified) ?
9.46

So what does the record say about activation for OC(COCC1COc2ccccc2O1)CN1CCN(c2ccc(F)cc2)CC1 (stereo unspecified) ?
74.5

GET /values?readout=activation&item= COc1ccc(/C=N/NC(=O)Nc2ccc3nsnc3c2)c(OC)c1
7.9

I am curious: what activation value has been reported for CCCCCCCCc1c(O)nc(-n2[nH]c(C)c(CCO)c2=O)[nH]c1=O ?
11.5

* * *

# tested on: Neuropeptide Y receptor type 1 (Homo sapiens) (UniProt P25929)
# assay text: NPY-Y1 receptor potentiators or agonists, primary screen, cell-based (AID 1304);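 further: cells stimulated with NPY at EC10 then isoproterenol at EC100; 0% = low agonist plus stimulus and 100% = saturating agonist plus stimulus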
# assay context: NPY-Y1 expressing cells, potentiator/agonist activation; at 3.6 µM; active compounds read high
Among all 220,000 compounds or so, about 800 (0.36%) were called active. Shown is part of a subset that was picked to be rich in actives.
readout kind: activation (%)
Report the figure in % without appending any unit label.

Here are 6 compounds together with their reported answers.
Could you share what activation was measured for COC(=O)c1cc(S(=O)(=O)N2CCC(C(N)=O)CC2)oc1C , tested on Neuropeptide Y receptor type 1 (Homo sapiens) (UniProt P25929)?
-1.47

Recorded activation for COC(=O)C1=C(C(=O)OC)C2(OC1c1ccc(Br)cc1)C(=O)c1ccccc1C2=O (stereo not given) with Neuropeptide Y receptor type 1 (Homo sapiens) (UniProt P25929), please?
2.63

Fill in the recorded activation for this compound, with Neuropeptide Y receptor type 1 (Homo sapiens) (UniProt P25929) as test system: Nc1nc(SCc2ccc([N+](=O)[O-])cc2)c2ncn(C3OC(CO)C(O)C3O)c2n1 (stereo not given)
-25.4

Report activation for CC(C)(C)C(=O)NNC(=O)c1ccc(Oc2cc(Cl)cc(Cl)c2)o1 tested on Neuropeptide Y receptor type 1 (Homo sapiens) (UniProt P25929).
-7.64

Can you look up activation on Neuropeptide Y receptor type 1 (Homo sapiens) (UniProt P25929) for CCCCNC(=O)Nc1c(C)cc(SC#N)cc1C ?
-6.72

Can you look up activation on Neuropeptide Y receptor type 1 (Homo sapiens) (UniProt P25929) for O=C(COc1ccc([N+](=O)[O-])cc1)Nc1ccc(N2CCCC2)cc1 ?
-4.81

Further cases:
Could you share what activation was measured for COC(=O)c1c(C(=O)OC)c2n(c1C)CCS2 , tested on Neuropeptide Y receptor type 1 (Homo sapiens) (UniProt P25929)?
-0.93

Observed activation on Neuropeptide Y receptor type 1 (Homo sapiens) (UniProt P25929) for S=c1[nH]nc(-c2cc(-c3ccccc3)n[nH]2)n1/N=C/c1c2ccccc2cc2ccccc12 , please.
6.62

Write down the reported activation of O=C(Nc1ccc(F)cc1F)N1CCCN(CCOc2ccccc2)CC1 , test system: Neuropeptide Y receptor type 1 (Homo sapiens) (UniProt P25929).
4.67

Recorded activation for Cc1ccc(-c2ccc(/C=C(\C#N)C(N)=S)o2)c([N+](=O)[O-])c1 with Neuropeptide Y receptor type 1 (Homo sapiens) (UniProt P25929), please?
8.63

These measurements were taken from PubChem BioAssay AID1304.
